Test Target: ER (estrogen receptor) (Homo sapiens, UniProt P03372)
Construct: MCF-7/ERE-luciferase monoclonal cells were selected by transfection of MCF-7
Sequence (P03372 whole entry): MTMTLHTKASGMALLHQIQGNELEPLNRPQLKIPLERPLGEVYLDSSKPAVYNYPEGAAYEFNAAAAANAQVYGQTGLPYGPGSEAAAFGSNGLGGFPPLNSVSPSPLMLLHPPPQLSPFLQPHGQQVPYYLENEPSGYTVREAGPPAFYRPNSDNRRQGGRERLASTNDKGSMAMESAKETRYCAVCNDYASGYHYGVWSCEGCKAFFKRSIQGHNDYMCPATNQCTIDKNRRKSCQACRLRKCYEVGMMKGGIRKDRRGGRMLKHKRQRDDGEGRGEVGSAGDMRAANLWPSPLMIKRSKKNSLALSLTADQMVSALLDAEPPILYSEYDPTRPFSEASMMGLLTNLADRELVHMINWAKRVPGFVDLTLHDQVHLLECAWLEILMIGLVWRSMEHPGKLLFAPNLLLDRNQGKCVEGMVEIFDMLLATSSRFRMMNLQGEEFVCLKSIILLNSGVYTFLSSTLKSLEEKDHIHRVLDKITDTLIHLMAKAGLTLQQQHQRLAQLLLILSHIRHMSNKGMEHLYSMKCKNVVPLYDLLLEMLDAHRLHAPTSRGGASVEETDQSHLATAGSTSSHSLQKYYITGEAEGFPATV
Run Description: Inhibition of the binding of estrogen (E) to estrogen receptor (ER), MCF-7/ERE-luciferase reporter cells
Condition Label: MCF-7/ERE-luciferase cells, 0.1 nM estradiol, 24 hours, chemiluminescence; read-out: IC50 value of inhibition effect on the binding of E to ER
Assay Metric: IC50
Give the value; after it, write the unit.

See these solved cases before continuing.
>>> print(df.to_string())
                                   molecule                               test_target  assay_metric  endpoint_result
0  CCn1cc(-c2ccc3c(c2)CC(C)N(c2ccc(C4CC4)cc2F)C3c2ccc(/C=C/C(=O)O)cc2)cn1 (stereo not drawn) [Example 22]  ER (estrogen receptor) (Homo sapiens, UniProt P03372)          IC50             1 nM
1  CCn1cc(-c2ccc3c(c2)CC(C)N(c2ccc(C(C)C)cc2)C3c2ccc(/C=C/C(=O)O)cc2)cn1 (stereo not drawn) [Example 7]  ER (estrogen receptor) (Homo sapiens, UniProt P03372)          IC50          1.79 nM

Please find the next molecule below.
Reported IC50 for CC(C)c1ccc(N2[C@@H](c3c(F)cc(/C=C/C(=O)O)cc3F)c3ccc(-c4cnn(C)c4)cc3C[C@@H]2C)cc1 (racemic) [Example 40] : what is it?
0.6 nM
